Assay: Remaining amount of each vitamin after 6 months storage at room temperature, measured by HPLC
Type: physicochemical
Details: vitamin in Example 3 infusion preparation before mixing, stored at room temperature for 6 months
Protocol: The infusion preparation (before mixing the first-chamber. infusion and the second-chamber infusion) was stored at room temperature for 6 months. Thereafter, the amount of each vitamin component contained in the first-chamber infusion or the second-chamber infusion was measured using HPLC. […] As is clear from the results, each of the vitamin components can be stably present in the infusion preparation even after 6 months storage.
Where a name gives a salt, the structure may show the parent alone.
Reported Remaining rate after 6 months storage (%) by item:
Write down the numeric answer in % and omit the unit.

1) NC(=O)c1cccnc1 [Nicotinamide]
99.6
2) O=C(O)CCCC[C@@H]1SC[C@@H]2NC(=O)N[C@@H]21
97.8
3) Cc1ncc(C[n+]2csc(CCO)c2C)c(N)n1 [Thiamine chloride hydrochloride]
98.7
4) C=C1CC[C@H](O)C/C1=C/C=C1\CCC[C@]2(C)[C@@H]([C@H](C)CCCC(C)C)CC[C@@H]12
100.5
5) CC1=C(C/C=C(\C)CCC[C@H](C)CCC[C@H](C)CCCC(C)C)C(=O)c2ccccc2C1=O
101.5
6) CC(C)(CO)[C@@H](O)C(=O)NCCCO
100.4
7) CC(=O)Oc1c(C)c(C)c2c(c1C)CCC(C)(CCC[C@H](C)CCC[C@H](C)CCCC(C)C)O2 (some centres unmarked) [Tocopherol acetate]
99.0
8) Nc1nc2ncc(CNc3ccc(C(=O)N[C@@H](CCC(=O)O)C(=O)O)cc3)nc2c(=O)[nH]1
100.0

Notebook: Cc1cc2nc3c(=O)[nH]c(=O)nc-3n(C[C@H](O)[C@H](O)[C@H](O)COP(=O)(O)O)c2cc1C [Riboflavin sodium phosphate] , Remaining rate after 6 months storage (%) read as 100.1

Just so you know, measured Remaining rate after 6 months storage (%) for "O=C1O[C@H]([C@@H](O)CO)C(O)=C1O" came out at 99.9

Measured Remaining rate after 6 months storage (%), Cc1ncc(CO)c(CO)c1O.Cl [Pyridoxine hydrochloride] : 99.3

Ref: patent US20170304530A1
